target: T1, JCV VP1 VLP (JC virus (JCV), Mad-1 strain, UniProt P03089 1-354); assay: direct ELISA, plate coated with antigen at 5 µg/ml in reassociation buffer (VLP); EC50 by non-linear regression (GraphPad Prism)
T1 construct: also called JCV VP1 VLPs; JCV VP1 (coating with reassociation buffer)
measurement label: EC50 (nM)
Answers are plain numbers, in nM.

Solved cases below.
So what does the record say about EC50 for NI-307.57D4 (antibody, V domains shown) VH: EVQLVESGGGLVQPGRSLRLSCAASGFTFDHYAMHWVRQVPGRGLEWVSGVTWNSGIIGYADSVKGRFTISRDNAKNSLYLQMTSLRAEDTALYYCAKGTNDFVSYGLDVWGQGTTVTVSS VL: QSVLTQPPSVSGAPGQRVSISCTGTSSNLGAGFDVHWYQQIPRKAPELLIYGNSIRPSGVPDRFSGSKSGTSASLAITGLQAEDEADYYCQSYDSRLSGSVFGGGTKLTVL ?
0.053

Consider the binder shown here: NI-307.27C11 (antibody, V domains shown) VH: QVQLQESGPGLVKPSGTLSLTCAVSGDSISSSNWWSWVRQPPGKGLEWIGEIYHSGGTKYNPSLKSRVTISVDKSKNHFSLKLRSVTAADTAVYYCARNRWFDNNRGGYYYYGMDVWGQGTTVTVSS VL: DIQMTQSPSSLSASVGDRVTITCRASQGISSYLNWYQQKPGKAPKLLISATSDLQSGVPSRFSGSGSGTDFTLTISSLQPEDFATYYCQQSYSTPYTFGQGTKLEIK What is its recorded EC50?
0.042

Others:
Give its EC50 value. Item: NI-307.98H1 (antibody, V domains shown) VH: QLQLQESGPGLVKPSQTLSLTCAVSGASISSGTYYWGWIRQHPGKGLEWIGYIYPSGSTYYNPSLKSRVIISLDTSKSQFSLNLSSVTAADTAVYYCARDYYDSSGHMGGYYHYAMDVWGQGTTVTVSS VL: DIQLTQSPSSLSASVGDRVTITCRASQSISSHLNWYQQKPGKVPKLLIYAASTLQSGVPSRFSGSGSGTDFTLAISSLQPADFATYYCQQSYSTPRTFGQGTKVDIK
0.086
